Values compiled from patent US6506766B1.

# tested on: human glucocorticoid receptor-α [GRX] isoform (Homo sapiens)
# Construct: host or cells: insect SF21 cells (baculovirus)
# Sequence (P04150 whole entry, canonical isoform): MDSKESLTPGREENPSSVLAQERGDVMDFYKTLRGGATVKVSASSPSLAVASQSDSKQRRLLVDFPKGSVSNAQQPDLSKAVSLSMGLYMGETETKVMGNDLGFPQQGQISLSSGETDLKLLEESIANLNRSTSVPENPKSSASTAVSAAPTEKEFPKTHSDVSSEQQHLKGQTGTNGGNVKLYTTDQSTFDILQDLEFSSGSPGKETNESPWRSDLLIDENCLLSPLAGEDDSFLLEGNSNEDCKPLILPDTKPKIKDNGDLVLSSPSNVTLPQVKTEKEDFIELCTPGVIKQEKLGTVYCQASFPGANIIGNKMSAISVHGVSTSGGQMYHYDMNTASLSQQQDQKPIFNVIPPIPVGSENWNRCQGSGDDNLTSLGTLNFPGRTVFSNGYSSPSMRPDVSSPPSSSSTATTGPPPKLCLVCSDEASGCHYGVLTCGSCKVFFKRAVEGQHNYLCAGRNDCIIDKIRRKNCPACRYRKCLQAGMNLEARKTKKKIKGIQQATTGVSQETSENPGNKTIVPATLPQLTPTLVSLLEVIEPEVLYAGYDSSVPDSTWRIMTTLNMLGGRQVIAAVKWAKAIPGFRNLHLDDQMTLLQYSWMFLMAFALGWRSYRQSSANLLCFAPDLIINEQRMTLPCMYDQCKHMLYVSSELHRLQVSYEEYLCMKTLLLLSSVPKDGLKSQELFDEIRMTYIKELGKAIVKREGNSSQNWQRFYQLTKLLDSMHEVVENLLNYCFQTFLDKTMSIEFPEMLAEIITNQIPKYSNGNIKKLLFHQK
# run description: Radioligand binding with human glucocorticoid receptor cytosol ([3H]-dexamethasone competition)
# conditions: GRX cytosol expressed in insect SF21 cells, [3H]-Dex ~0.9 nM, 4° C. overnight; Ki by Cheng-Prusoff, KL ~[…]; read-out: Ki (nM) GR
endpoint name: Ki (nM)

Below, 5 compounds whose answers are already recorded.
compound: COc1cccc2c1-c1ccc3c(c1C(=Cc1ccccc1Cl)O2)C(C)=CC(C)(C)N3 [Example 124]
measured value: 3.2

compound: CC1=CC(C)(C)Nc2ccc3c(c21)C(=Cc1ccccc1)Oc1ccc(O)c(Cl)c1-3 [Example 401]
measured value: 134

compound: COc1cccc2c1-c1ccc3c(c1C(c1cc(C(F)(F)F)cc(C(F)(F)F)c1)O2)C(C)=CC(C)(C)N3 (stereo not shown) [Example 31]
measured value: 12.2

compound: COc1cccc2c1-c1ccc3c(c1C(c1cccc(F)c1)O2)C(C)=CC(C)(C)N3 (stereo not shown) [Example 56]
measured value: 6.2

compound: COC(=O)c1cccc2c1-c1ccc3c(c1C(c1ccccc1)O2)C(C)=CC(C)(C)N3 (stereo not shown) [Example 335]
measured value: 652

A. COc1c(O)ccc2c1-c1ccc3c(c1[C@H]([C@H]1C=CCC1)O2)C(C)=CC(C)(C)N3 [Example 253]
B. COc1c(O)ccc2c1-c1ccc3c(c1C(=Cc1ccccc1)O2)C(C)=CC(C)(C)N3 [Example 406]
stdin: Lower value for measured Ki? Options: A , B Identify your selection by its label.
stdout: A

1. C=Cc1cccc2c1-c1ccc3c(c1C(c1ccccc1)O2)C(C)=CC(C)(C)N3 (stereo not shown) [Example 333]
2. COc1c(O)ccc2c1-c1ccc3c(c1C(CC=C(C)C)O2)C(C)=CC(C)(C)N3 (stereo not shown) [Example 283]
stdin: I'm curious whether 1 or 2 has the smaller Ki number. Which is it? Kindly state the label of the option you pick.
stdout: 2

I. COc1cccc2c1-c1ccc3c(c1C(c1cccc(OC[S+](C)[O-])c1)O2)C(C)=CC(C)(C)N3 (stereo not shown) [Example 101]
II. CC1=CC(C)(C)Nc2ccc3c(c21)C(c1ccccc1)Oc1ccc(O)c(Cl)c1-3 (stereo not shown) [Example 217]
III. C=CCC1Oc2cccc(OC)c2-c2ccc3c(c21)C(CC)=CC(C)(C)N3 (stereo not shown) [Example 363]
IV. COc1cccc2c1-c1ccc3c(c1[C@H]([C@@H]1C=C(C)CCC1)O2)C(C)=CC(C)(C)N3 [Example 154]
stdin: Sort by Ki, descending. Reply with the item labels sorted in the order that was asked for.
stdout: I, III, II, IV
(I: 11.4 nM, III: 5 nM, II: 1 nM, IV: 0.7 nM)

P. COCOCCC1Oc2cccc(OC)c2-c2ccc3c(c21)C(C)=CC(C)(C)N3 (stereo not shown) [Example 205]
Q. C=CCC1Oc2c(C)cc(C)c(OC)c2-c2ccc3c(c21)C(C)=CC(C)(C)N3 (stereo not shown) [Example 308]
stdin: Between item P and item Q , which reported Ki is smaller? Your choice should be expressed through its label.
stdout: P
(P: 11.4 nM, Q: 50.8 nM)
